biological target: HLA-B*18:01; assay: IEDB peptide-MHC binding, purified MHC/competitive/radioactivity; filed as Kd, often an IC50 or EC50 that approximates it; bounds were set here for any values at or beyond the usual limits of such assays; conditions: source organism: Mammarenavirus brazilense
measured.attribute: Kd

SEIQLQRLC ... 10.5 µM

Ask: Provide value of Kd for this record tested with HLA-B*18:01: PELKKPITW
Reply: ≥ 77.5 µM

* * *

target: HLA-A*31:01; assay: IEDB peptide-MHC binding, purified MHC/direct/fluorescence; filed as Kd, often an IC50 or EC50 that approximates it; bounds were set here for any values at or beyond the usual limits of such assays; conditions: source organism: Salmonella enterica subsp. enterica serovar Typhimurium
# pKd values compiled below
Scale note: pKd = -log10(concentration in M).

GMFGGCFAA ... 5.91

Let's switch to this sequence now.
Ask: Can you share its pKd? I mean this sequence: GMKAFTAAV
Reply: 7.13

Origin of values: the Immune Epitope Database (IEDB)
